# Assayed system: SHP2-C SH2;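 further: peptide library displayed on the E. coli surface as eCPX fusions, selected cells deep-sequenced, score is each peptide's frequency after selection divided by its frequency in the input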
# Protocol notes: SH2 binding enrichment of the phosphorylated peptide, bacterial display (enrichment ratio); higher = better substrate or ligand; peptides without Tyr show the background
// Condition not met strictly below 0.7 in SH2 binding enrichment; Condition met otherwise

Recorded results for 3 sequences are shown here.
CKLCQYFLDHL [ATRX_Y1849_Y1847C_YF]; Condition met
EDDPEYMRLRN [ADD2_Y31]; Condition not met
RIVEIYSRRLQ [GCH1_Y175]; Condition met

Prompt line: Threshold query (SH2 binding enrichment >= 0.7) on EEGRVYVFHLS [ITGAE_Y549_R552H_YF]
Response line: Condition not met

Prompt line: Form field: SH2 binding enrichment at least 0.7? Entry: ANNPLYKEATS [ITGB3_Y773]
Response line: Condition met

Prompt line: Form field: SH2 binding enrichment at least 0.7? Entry: DKTGEYPVPLT [ACADM_Y73_I78T]
Response line: Condition not met

Prompt line: For this sequence, is measured SH2 binding enrichment 0.7 or higher? WKKKIYEESST [MOCS2_Y170_E168K]
Response line: Condition not met

Prompt line: Assess whether reported SH2 binding enrichment for ISTAGYSFPEL [EDAR_Y406_I408F] sits at 0.7 or higher.
Response line: Condition met

The reported numbers originate from the supplement of paper PMC10065799.
